assay.target: Human Factor D (Homo sapiens, UniProt P00746)
Construct: purified from human serum; purchased Complement Technology, Inc; host or cells: human serum
Sequence (P00746 26-253): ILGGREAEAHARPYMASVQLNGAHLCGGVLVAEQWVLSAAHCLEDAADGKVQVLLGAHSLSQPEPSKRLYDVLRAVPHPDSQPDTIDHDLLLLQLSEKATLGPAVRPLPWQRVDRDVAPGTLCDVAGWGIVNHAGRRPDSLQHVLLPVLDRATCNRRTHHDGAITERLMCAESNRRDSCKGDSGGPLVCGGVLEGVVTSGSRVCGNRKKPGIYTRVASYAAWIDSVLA
measurement.protocol: Human Factor D assay (Example 8)
Format: biochemical
conditions: Table 1; Human Factor D 80 nM, substrate Z-L-Lys-SBzl; read-out: IC50
attribute.measured: IC50

Known IC50 results, listed for orientation:
>  <compound.smiles>
CC(=O)n1cc(NC(=O)[C@H]2CC(F)(F)CN2C(=O)Cc2cccc(Cl)c2F)c2ccccc21

>  <attribute.measured>
IC50

>  <result>
> 10 µM

$$$$
>  <compound.smiles>
NC(=O)N1C[C@H](F)C[C@H]1Cn1cc(-c2ccc(F)c(Cl)c2)nn1

>  <attribute.measured>
IC50

>  <result>
> 10 µM

$$$$
>  <compound.smiles>
NC(=O)n1cc(NC(=O)C2=C(C(=O)NCc3cccc(Cl)c3F)CCC2)c2ccccc21

>  <attribute.measured>
IC50

>  <result>
> 10 µM

$$$$
>  <compound.smiles>
CC(=O)n1cc(CC(=O)N2C[C@H](F)C[C@H]2C(=O)Nc2cccc(-c3ccccc3Cl)c2F)c2ccsc21

>  <attribute.measured>
IC50

>  <result>
< 1 µM

$$$$
>  <compound.smiles>
CC(=O)n1cc(NC(=O)[C@@H]2C[C@H](F)CN2C(=O)NCc2cccc(Cl)c2F)c2ccccc21

>  <attribute.measured>
IC50

>  <result>
> 10 µM

$$$$

Provide each entry's IC50 from the list below.
1. Cc1cc2c(s1)c(C(N)=O)nn2CC(=O)N1C[C@H](F)C[C@H]1C(=O)Nc1cccc(-c2ccccc2Cl)c1F
2. CC(=O)c1nn(CC(=O)N2C[C@H](F)C[C@H]2C(=O)Nc2cccc(SC(F)(F)F)c2)c2cnccc12

Result:
["< 1 µM", "< 1 µM"]
